# study-system: NR1A/NR2B NMDA receptor subtype (Rattus norvegicus, UniProt P35439+Q00960)
# Construct: membrane fraction was prepared from frozen adult rat forebrains; tissue Zivic-Miller Laboratories, Inc; host or cells: adult rat forebrain, washed buffy coat membrane fraction
# Sequence (Q00960 27-1482, other chains not shown): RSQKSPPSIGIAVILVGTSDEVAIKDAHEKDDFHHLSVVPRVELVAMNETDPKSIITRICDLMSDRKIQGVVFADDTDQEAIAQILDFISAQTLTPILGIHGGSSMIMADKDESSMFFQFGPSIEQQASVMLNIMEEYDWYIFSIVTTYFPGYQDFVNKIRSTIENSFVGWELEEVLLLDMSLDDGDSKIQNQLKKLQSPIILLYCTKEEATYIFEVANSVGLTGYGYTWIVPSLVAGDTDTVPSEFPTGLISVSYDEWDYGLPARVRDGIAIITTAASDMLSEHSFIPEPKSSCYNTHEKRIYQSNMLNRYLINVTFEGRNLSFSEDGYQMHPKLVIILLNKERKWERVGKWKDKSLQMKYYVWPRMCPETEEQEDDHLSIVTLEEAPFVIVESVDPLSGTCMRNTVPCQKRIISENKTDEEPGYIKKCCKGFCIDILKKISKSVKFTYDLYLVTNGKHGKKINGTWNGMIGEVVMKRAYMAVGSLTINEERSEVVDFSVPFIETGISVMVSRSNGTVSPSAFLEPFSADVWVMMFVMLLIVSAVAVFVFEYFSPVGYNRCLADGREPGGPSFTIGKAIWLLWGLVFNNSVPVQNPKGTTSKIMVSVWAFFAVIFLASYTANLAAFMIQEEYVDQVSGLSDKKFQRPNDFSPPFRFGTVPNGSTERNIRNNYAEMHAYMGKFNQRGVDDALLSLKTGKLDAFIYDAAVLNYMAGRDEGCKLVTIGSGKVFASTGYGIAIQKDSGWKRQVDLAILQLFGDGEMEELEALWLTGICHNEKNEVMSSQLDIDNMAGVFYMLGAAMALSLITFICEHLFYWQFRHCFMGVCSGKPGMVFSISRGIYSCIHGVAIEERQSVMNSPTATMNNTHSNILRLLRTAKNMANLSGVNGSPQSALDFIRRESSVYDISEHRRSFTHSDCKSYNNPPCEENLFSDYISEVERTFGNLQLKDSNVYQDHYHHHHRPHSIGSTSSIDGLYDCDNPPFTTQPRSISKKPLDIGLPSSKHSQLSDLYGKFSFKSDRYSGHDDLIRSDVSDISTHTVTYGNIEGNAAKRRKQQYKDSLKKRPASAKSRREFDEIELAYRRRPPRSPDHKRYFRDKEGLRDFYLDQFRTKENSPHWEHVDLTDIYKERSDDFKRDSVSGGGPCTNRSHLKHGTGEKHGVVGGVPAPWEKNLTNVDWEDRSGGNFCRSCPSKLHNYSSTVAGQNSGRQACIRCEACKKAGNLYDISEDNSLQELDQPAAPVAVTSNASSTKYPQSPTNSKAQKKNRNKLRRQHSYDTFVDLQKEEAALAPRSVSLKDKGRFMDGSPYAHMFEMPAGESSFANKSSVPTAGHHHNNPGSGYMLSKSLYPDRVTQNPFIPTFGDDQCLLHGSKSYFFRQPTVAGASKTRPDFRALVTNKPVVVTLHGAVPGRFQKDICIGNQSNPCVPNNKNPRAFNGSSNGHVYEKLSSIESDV
# assay-overview: [3H]Ifenprodil binding assay (IFPNR)
# test-parameters: displacement of 4 nM [3H]-ifenprodil, adult rat forebrain membranes, 2 hours at room temperature, pH 7.4
test-readout: IC50 (µM)
Quick note: give the figure in µM, leave out the unit.

Cc1oc(-c2ccccc2)cc1CN(C)[C@H]1CC[C@H](c2ccc3[nH]c(=O)oc3c2)CC1	6.67

Turning now to a further record.
Query string: Answer with the recorded IC50 of CN(CC1CC(c2ccc3[nH]c(=O)oc3c2)=NO1)[C@H]1CC[C@H](c2ccccc2)CC1 (relative stereo) only.
Result string: 5.91

====

# study-system: NR1A/NR2B NMDA receptor subtype (Rattus norvegicus, UniProt P35439+Q00960)
# Construct: membrane fraction was prepared from frozen adult rat forebrains; tissue Zivic-Miller Laboratories, Inc; host or cells: adult rat forebrain, washed buffy coat membrane fraction
# assay-overview: [3H]Ifenprodil binding assay (IFPNR)
# test-parameters: displacement of 4 nM [3H]-ifenprodil, adult rat forebrain membranes, 2 hours at room temperature, pH 7.4
The following compounds are shown together with reported IC50 values.
Quick note: give the figure in nM, leave out the unit.

CN(CC1CC(c2ccc(F)cc2)=NO1)[C@H]1CC[C@H](c2ccc3[nH]c(=O)oc3c2)CC1 (relative stereo)	391
CN(C[C@@H]1CN(c2ccccc2)C(=O)O1)[C@H]1CC[C@H](c2ccc3[nH]c(=O)oc3c2)CC1	394

Turning now to a further record.
Query string: Answer with the recorded IC50 of `Cc1sc(-c2ccccc2)nc1CN(C)[C@H]1CC[C@H](c2ccc3[nH]c(=O)oc3c2)CC1` only.
Result string: 848

====

Structures can show the parent of a compound that is named as a salt.
The following compounds are shown together with reported melting point values.

Solved entries (count: 3):
CN(CC1CC(c2ccc3[nH]c(=O)oc3c2)=NO1)[C@H]1CC[C@H](c2ccccc2)CC1 (relative stereo) (as salt: hydrochloride)	270 to 274 °C
Cc1oc(-c2ccccc2)cc1CN(C)[C@H]1CC[C@H](c2ccc3[nH]c(=O)oc3c2)CC1 (as salt: hydrochloride)	176 to 183 °C
CN(CC1CC(c2ccc(F)cc2)=NO1)[C@H]1CC[C@H](c2ccc3[nH]c(=O)oc3c2)CC1 (relative stereo)	109 to 114 °C

Turning now to a further record.
Query string: Answer with the recorded melting point of `Cc1sc(-c2ccccc2)nc1CN(C)[C@H]1CC[C@H](c2ccc3[nH]c(=O)oc3c2)CC1` only.
Result string: 246 to 248 °C

Data origin, for the record: patent US6828341B2
